The values you see were collected from ChEMBL document CHEMBL4261549.

Provide the recorded log10 IC50 for the entries that follow.
Test system: PC-3
Assay: Antiproliferative activity against human PC3 cells after 48 hrs by MTT assay
Type: functional, cell-based
Conditions: PC-3, 48 h
The common logarithm of IC50 in µM is what is listed.

Item `COc1cc(/C=C/C(C)=O)ccc1OCc1cn(-c2ccccc2)nn1` with PC-3 - log10 IC50?
1.90

Item `COc1cc(/C=C/C(C)=O)ccc1OCc1cn(-c2ccc(C(F)(F)F)c(C(F)(F)F)c2)nn1` with PC-3 - log10 IC50?
1.83

Item `C#CCOc1ccc(/C=C/C(C)=O)cc1OC` with PC-3 - log10 IC50?
1.60

Item `COc1cc(/C=C/C(C)=O)ccc1OCc1cn(-c2ccc([N+](=O)[O-])cc2)nn1` with PC-3 - log10 IC50?
1.67

Item `CCOC(=O)c1ccc(-n2cc(COc3ccc(/C=C/C(C)=O)cc3OC)nn2)cc1` with PC-3 - log10 IC50?
1.77

Item `COc1cc(/C=C/C(C)=O)ccc1OCc1cn(-c2ccccc2CO)nn1` with PC-3 - log10 IC50?
1.70

Item `COc1cc(/C=C/C(C)=O)ccc1OCc1cn(-c2ccccc2O)nn1` with PC-3 - log10 IC50?
1.77

Item `COc1cc(/C=C/C(C)=O)ccc1OCc1cn(-c2c(Cl)cccc2Cl)nn1` with PC-3 - log10 IC50?
0.49

Item `COc1cc(/C=C/C(C)=O)ccc1OCc1cn(-c2ccccc2OC)nn1` with PC-3 - log10 IC50?
0.31

Item `COc1cc(/C=C/C(C)=O)ccc1OCc1cn(-c2ccc(-c3ccccc3)cc2)nn1` with PC-3 - log10 IC50?
1.75

Item COc1cc(/C=C/C(C)=O)ccc1O [DEHYDROZINGERONE] with PC-3 - log10 IC50?
1.64

Item `COc1cc(/C=C/C(C)=O)ccc1OCc1cn(-c2ccc(NC(=O)c3ccccc3)cc2)nn1` with PC-3 - log10 IC50?
1.89

Item `COc1cc(/C=C/C(C)=O)ccc1OCc1cn(-c2ccc(/N=N/c3ccccc3)cc2)nn1` with PC-3 - log10 IC50?
1.62

Item `COc1cc(/C=C/C(C)=O)ccc1OCc1cn(-c2ccccc2Cl)nn1` with PC-3 - log10 IC50?
1.68

Item `COc1cc(/C=C/C(C)=O)ccc1OCc1cn(-c2cc(F)cc(Br)c2)nn1` with PC-3 - log10 IC50?
1.76

Item `COc1ccc(-n2cc(COc3ccc(/C=C/C(C)=O)cc3OC)nn2)cc1` with PC-3 - log10 IC50?
0.30

Item `COc1cccc(-n2cc(COc3ccc(/C=C/C(C)=O)cc3OC)nn2)c1` with PC-3 - log10 IC50?
1.50

Item `COc1cc(/C=C/C(C)=O)ccc1OCc1cn(-c2ccc(C=O)cc2)nn1` with PC-3 - log10 IC50?
1.91

Item `COc1cc(/C=C/C(C)=O)ccc1OCc1cn(-c2ccc(C)cc2)nn1` with PC-3 - log10 IC50?
1.76

Item `COc1cc(/C=C/C(C)=O)ccc1OCc1cn(-c2c(F)cccc2F)nn1` with PC-3 - log10 IC50?
1.38
